Where these numbers come from: PubChem BioAssay (NCI)

# Tested on: SK-MEL-28 melanoma
# EXPERIMENT: NCI tumour cell line growth inhibition, 48 h
// TGI lookup, one value per entry
The reply should contain only the number, in µM.

MOLECULE	ASSAY READOUT	READING UNIT	QUANTITATIVE READOUT
Cc1cc2c(C(C)C)c(O)c(O)c(C=O)c2c(O)c1-c1c(C)cc2c(C(C)C)c(O)c(O)c(C=O)c2c1O (tested in a mixture with another compound)	TGI	µM	3.64

Now examine the next entry.
Output TGI of CCNCCNc1cc(-c2cccc(C(F)(F)F)c2)c(C#N)c2nc3ccccc3n12
3.63

----------
# System: SK-MEL-5 melanoma
# EXPERIMENT: NCI tumour cell line growth inhibition, 48 h
ASSAY READOUT: TGI

Before answering, review these 5 worked examples.
MOLECULE	TGI
COc1ccccc1OC(=O)/C=C/c1ccccc1	> 100 µM
Cc1cc(=O)oc2c(CNC(C(=O)O)C(C)O)c(O)ccc12 (stereo unspecified)	> 100 µM
NC(N)=NS(=O)(=O)c1ccc(NNc2c3ccccc3nc3c(C(=O)Nc4ccc(S(N)(=O)=O)cc4)cccc23)cc1	> 100 µM
NNC(=S)N/N=C/C(Cl)=C(\Cl)C(=O)O	> 100 µM
CN(C)CCC(C(=O)C(C)(C)C)c1ccccn1 (stereo unspecified)	> 100 µM

Now examine the next entry.
Output TGI of Cc1cccnc1CNC1CC(NCc2ncccc2C)CC(NCc2ncccc2C)C1 (stereo unspecified)
3.83 µM
